- Test system: Cryptococcus neoformans
- testSummary: Antifungal activity against Cryptococcus neoformans 103 assessed as growth inhibition by agar dilution method
- Type: functional
measuredMetric: log10 of MIC (log10 of the value in µg/mL)
Scale: log10; quantity: MIC; unit before log: µg/mL

*Q* What value of log10 of MIC has been recorded for this entry: "Cc1cc(OCCCCCCC[N+](C)(C)Cc2ccc(Br)o2)c(C(C)C)cc1Cl.[Br-]"
*A* 1.40

*Q* # iterate: "Cc1cc(OCC[N+](C)(C)Cc2ccc(Br)o2)c(C(C)C)cc1Cl.[Br-]"
*A* 1.70

*Q* # iterate: "Cc1cc(OCCCCC[N+](C)(C)Cc2ccc(Br)o2)c(C(C)C)cc1Cl.[Br-]"
*A* 1.00

*Q* # iterate: "C[N+](C)(CCCCCCCCOc1c(Br)cc(Br)cc1Br)Cc1ccc([N+](=O)[O-])o1.[Br-]"
*A* 0.60

*Q* # iterate: "C[N+](C)(CCCCCOc1c(Br)cc(Br)cc1Br)Cc1ccco1.[Br-]"
*A* 1.40

*Q* # iterate: "Cc1cc(OCCCCCCCCCC[N+](C)(C)Cc2ccc(Br)o2)c(C(C)C)cc1Cl.[Br-]"
*A* 2.00

*Q* # iterate: "C[N+](C)(CCCCCOc1c(Br)cc(Br)cc1Br)Cc1ccc(Br)o1.[Br-]"
*A* 1.40

*Q* # iterate: "C[N+](C)(CCCCCCCOc1c(Br)cc(Br)cc1Br)Cc1ccc([N+](=O)[O-])o1.[Br-]"
*A* 0.70

====

- Tested on: Staphylococcus aureus
- testSummary: Antibacterial activity against Staphylococcus aureus ATCC 6538 assessed as growth inhibition after 24 hrs by dilution tube method
- Format: functional
- experimentalConditions: ATCC 6538, 24 h
Binary label based on MIC with cut-off 50 µg/mL: below gives rule met, not below gives rule not met.

Solved entries (count: 3):
*Q* Does "C[N+](C)(CCCCCCCCOc1c(Br)cc(Br)cc1Br)Cc1ccc(Br)o1.[Br-]" have MIC strictly under 50 µg/mL?
*A* rule met

*Q* # iterate: "C[N+](C)(CCCCOc1ccccc1Cl)Cc1ccc([N+](=O)[O-])o1.[Br-]"
*A* rule not met

*Q* # iterate: "Cc1ccc(C[N+](C)(C)CCCCCCOc2c(Br)cc(Br)cc2Br)o1.[Br-]"
*A* rule met

New cases:
*Q* Does "C[N+](C)(CCOc1ccc(Cl)cc1Cl)Cc1ccc([N+](=O)[O-])o1.[Br-]" have MIC strictly under 50 µg/mL?
*A* rule not met

*Q* # iterate: "C[N+](C)(CCCCCOc1c(Br)cc(Br)cc1Br)Cc1ccc(Br)o1.[Br-]"
*A* rule met

*Q* # iterate: "Cc1cc(OCCCC[N+](C)(C)Cc2ccc([N+](=O)[O-])o2)c(C(C)C)cc1Cl.[Br-]"
*A* rule met

*Q* # iterate: "C[N+](C)(CCCCOc1c(Br)cc(Br)cc1Br)Cc1ccc(Br)o1.[Br-]"
*A* rule met

====

- Test system: Candida albicans
- testSummary: Antifungal activity against Candida albicans SKF 2270 assessed as growth inhibition by agar dilution method
- Assay type: functional
measuredMetric: MIC

Reference set (6 entries):
*Q* What value of MIC has been recorded for this entry: "Cc1cc(OCCCCCCCCCCCC[N+](C)(C)Cc2ccc(Br)o2)c(C(C)C)cc1Cl.Cc1ccc(S(=O)(=O)[O-])cc1"
*A* > 200 µg/mL

*Q* # iterate: "C[N+](C)(CCCCCCOc1c(Br)cc(Br)cc1Br)Cc1ccco1.[Br-]"
*A* 50 µg/mL

*Q* # iterate: "C[N+](C)(CCCCCCCOc1c(Br)cc(Br)cc1Br)Cc1ccc(Br)o1.[Br-]"
*A* > 200 µg/mL

*Q* # iterate: "C[N+](C)(CCCCCOc1c(Br)cc(Br)cc1Br)Cc1ccc(Br)o1.[Br-]"
*A* > 200 µg/mL

*Q* # iterate: "C[N+](C)(CCCCCOc1c(Br)cc(Br)cc1Br)Cc1ccco1.[Br-]"
*A* 100 µg/mL

*Q* # iterate: "Cc1cc(OCCCCCCCC[N+](C)(C)Cc2ccc(Br)o2)c(C(C)C)cc1Cl.Cc1ccc(S(=O)(=O)[O-])cc1"
*A* > 200 µg/mL

New cases:
*Q* What value of MIC has been recorded for this entry: "Cc1cc(OCCC[N+](C)(C)Cc2ccc([N+](=O)[O-])o2)c(C(C)C)cc1Cl.[Br-]"
*A* > 200 µg/mL

*Q* # iterate: "C[N+](C)(CCOc1ccc(Cl)cc1Cl)Cc1ccc([N+](=O)[O-])o1.[Br-]"
*A* > 200 µg/mL

*Q* # iterate: "Cc1cc(OCCCCCCC[N+](C)(C)Cc2ccc(Br)o2)c(C(C)C)cc1Cl.[Br-]"
*A* 50 µg/mL
